test.system: S1P3 (Homo sapiens (Human))
Sequence (Q99500 whole entry): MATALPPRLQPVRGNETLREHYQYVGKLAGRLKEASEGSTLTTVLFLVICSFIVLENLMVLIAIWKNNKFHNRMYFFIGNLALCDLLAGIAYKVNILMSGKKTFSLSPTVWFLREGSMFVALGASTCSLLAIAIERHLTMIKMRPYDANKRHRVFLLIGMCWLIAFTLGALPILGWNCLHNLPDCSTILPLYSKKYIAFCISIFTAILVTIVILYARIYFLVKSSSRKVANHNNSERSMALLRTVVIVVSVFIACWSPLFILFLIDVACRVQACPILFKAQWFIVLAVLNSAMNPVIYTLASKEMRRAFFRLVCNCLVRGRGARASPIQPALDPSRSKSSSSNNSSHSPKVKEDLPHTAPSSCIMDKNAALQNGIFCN
measurement.protocol: Receptor [35S] GTPγS Binding Assay, EDG3-Ga15-bla HEK293T cell membranes
experimental.setup: membranes from EDG3-Ga15-bla HEK293T cells; rounded to two significant digits
Protocol: Receptor [35S] GTPγS Binding Assays Compounds were loaded in a 384 Falcon v-bottom plate (0.5 μl/well in a 11 point, 3-fold dilution). Membranes prepared from S1P1/CHO cells or EDG3-Ga15-bla HEK293T cells were added to the compound plate (40 μl/well, final protein 3 μg/well) with MULTIDROP®. [^35S]GTP (1250 Ci/mmol, Perkin Elmer) was diluted in assay buffer: 20 mM HEPES, pH7.5, 10 mM MgCl2, 150 mM NaCl, 1 mM EGTA, 1 mM DTT, 10 μM GDP, 0.1% fatty acid free BSA, and 10 μg/ml Saponin to 0.4 nM. […]
pEC50: −log10 of the molar value.
Rule: pEC50 of 6 or more gives t; anything lower gives f.

COc1cc(OC)cc(-c2noc(CCC3(c4ccccc4)CCCCC3)n2)c1 : f
c1ccc(C2(CCc3nc(-c4cccnc4)no3)CCCCC2)cc1 : f
Nc1cc(-c2noc(CCC3(c4ccccc4)CCCCC3)n2)ccn1 : t

Check the entry "Clc1cc(-c2noc(CCC3(c4ccccc4)CCCCC3)n2)ccn1" : does pEC50 equal or exceed 6?
t

Check the entry "COc1ccc(OC)c(-c2noc(CCC3(c4ccccc4)CCCCC3)n2)c1" : does pEC50 equal or exceed 6?
f

The measurements presented in this section are drawn from patent US9187437B2.
